Target: CYP1A1 (Homo sapiens, UniProt P04798)
Sequence (P04798 1-512): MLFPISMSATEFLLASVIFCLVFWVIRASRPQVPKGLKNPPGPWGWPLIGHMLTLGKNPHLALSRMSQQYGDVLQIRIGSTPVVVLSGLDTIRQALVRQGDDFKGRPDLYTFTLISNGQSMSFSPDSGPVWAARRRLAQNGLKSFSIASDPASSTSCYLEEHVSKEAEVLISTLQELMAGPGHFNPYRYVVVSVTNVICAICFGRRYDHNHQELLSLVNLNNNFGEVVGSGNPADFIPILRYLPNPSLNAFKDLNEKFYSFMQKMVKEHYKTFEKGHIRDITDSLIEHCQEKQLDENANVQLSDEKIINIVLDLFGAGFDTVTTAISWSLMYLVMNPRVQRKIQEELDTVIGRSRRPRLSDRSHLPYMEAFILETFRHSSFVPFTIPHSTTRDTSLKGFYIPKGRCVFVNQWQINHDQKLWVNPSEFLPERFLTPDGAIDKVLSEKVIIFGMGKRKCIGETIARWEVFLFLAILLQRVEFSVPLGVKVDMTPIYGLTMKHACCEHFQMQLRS
Assay: Fluorometric CYP inhibition assay, CEC dealkylation
Type: biochemical
Conditions: recombinant CYP1A1, CEC 0.5 μM
reported.endpoint: pIC50
Answers are plain numbers, as −log10 of the molar value.

| compound | pIC50 |
| --- | --- |
| C/C(=C\C(=O)c1cc(O)c(Br)cc1O)CCCC(C)(C)O [PBQ2, 7-hydroxycymopolone] | 6.03 |

Q: Fill blank: measured pIC50 of the compound CC(=O)N1CCN(c2ccc(OCC3COC(Cn4ccnc4)(c4ccc(Cl)cc4Cl)O3)cc2)CC1 (centres unmarked) [ketoconazole, reference compound] is ____.
Result: 7.40
